Where do these numbers come from? They come from paper PMC9482650.

experimental system: Inadl_9, Q8NI35
Sequence (Q8NI35 1530-1615): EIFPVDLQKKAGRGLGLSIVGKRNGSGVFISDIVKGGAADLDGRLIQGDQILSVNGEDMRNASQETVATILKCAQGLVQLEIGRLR
protocol: holdup assay
Parameters: key: below the threshold = too weak to quantify, mostly under pKd 3.1 to 4
run conditions: plain residues with an end cap or a label only (N-terminal biotin on a linker: ado-ado)
# binarize pKd: threshold 4 inclusive, high side True, low side False

Below, 2 binders whose answers are already recorded.
# binder, discrete label
rows = [
    ("TNSKQGETTV [FZD1, Q9UP38]", "False"),
    ("KIEDVEITLV [FCHSD2, O94868]", "False"),
]

Prompt: Please indicate if the recorded pKd for KAEEKPPSKV [SCN4B, Q8IWT1] meets or exceeds 4.
Completion: False

Prompt: Next record, please: TKEIPNCTSV [SORCS3, Q9UPU3]
Completion: False
